target: Heat shock 70 kDa protein 1A (Homo sapiens) (UniProt P0DMV8); experiment: Hsp70 inhibitors, probe displacement, primary screen, biochemical, fluorescence polarization (AID 583); conditions: mP, at 20 µM, active compounds read high;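 also: plate controls were vehicle for no effect and reference ligand for full effect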
Sequence (P0DMV8 whole entry, looked up): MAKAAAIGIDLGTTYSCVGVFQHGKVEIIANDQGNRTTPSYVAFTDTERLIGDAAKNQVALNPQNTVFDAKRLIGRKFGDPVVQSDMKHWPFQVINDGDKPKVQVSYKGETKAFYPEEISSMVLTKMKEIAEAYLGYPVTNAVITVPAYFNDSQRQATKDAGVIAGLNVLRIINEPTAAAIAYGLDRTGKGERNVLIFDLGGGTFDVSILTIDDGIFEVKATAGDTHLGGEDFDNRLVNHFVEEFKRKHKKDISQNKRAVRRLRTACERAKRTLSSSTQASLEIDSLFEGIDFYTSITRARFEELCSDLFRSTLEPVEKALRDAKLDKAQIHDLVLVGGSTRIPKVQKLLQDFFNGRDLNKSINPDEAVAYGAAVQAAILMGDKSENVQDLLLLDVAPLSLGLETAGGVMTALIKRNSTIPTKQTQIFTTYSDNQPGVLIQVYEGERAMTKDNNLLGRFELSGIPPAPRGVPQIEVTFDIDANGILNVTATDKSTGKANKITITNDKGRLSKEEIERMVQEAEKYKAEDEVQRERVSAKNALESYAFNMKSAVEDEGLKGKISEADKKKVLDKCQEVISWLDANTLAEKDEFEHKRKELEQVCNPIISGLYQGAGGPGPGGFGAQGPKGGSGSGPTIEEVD
Screen size: about 140,000 compounds; about 80 (0.06%) were called active. Only a selection was taken, and actives are over-represented in it overall.
Listed below: displacement values for each entry.
Field format: number, assumed %, no unit text.

Here are 6 compounds together with their reported answers.
CN1CCN(c2nccc3c2ncn3C)CC1 ... -5.2
C#CCNc1ccncc1S(=O)(=O)NC(=O)NC(C)C ... 5.1
COc1ccc(N2C(=O)/C(=C/c3ccc(I)o3)C(=O)NC2=S)cc1 ... 92
O=C1NC(=S)N(c2ccc(F)cc2)C(=O)/C1=C/c1ccc(Br)o1 ... 68.7
O=C1NC(=O)N(c2ccc(Cl)cc2)C(=O)/C1=C/c1ccc(Br)o1 ... -0.1
CN1C(=O)NC(=O)/C(=C/c2ccc(Br)o2)C1=O ... 2.1

// next entry
Prompt: Given the compound CN1C(=O)NC(=O)/C(=C/c2ccc(I)o2)C1=O , what is its reported displacement?
Response: 9.4

----------
target: Heat shock 70 kDa protein 1A (Homo sapiens) (UniProt P0DMV8); assay: Hsp70 inhibitors, probe displacement, primary screen, biochemical, fluorescence polarization (AID 583); details: mP, at 20 µM, active compounds read high;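 also: plate controls were vehicle for no effect and reference ligand for full effect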
Screen size: about 140,000 compounds; about 80 (0.06%) were called active. The entries come from a sample that favours actives as a whole.
Listed below: displacement values for each entry.

Here are 5 molecules together with their reported answers.
CCOC(=O)C1C(=O)NC2(C)CC1c1cc(OC)ccc1O2 (stereo not drawn) ... 7.2% (inactive)
O=C1NC(=S)N(c2cccc(Br)c2)C(=O)/C1=C/c1ccco1 ... 95.8% (active)
O=C1NC(=S)N(c2ccccc2)C(=O)/C1=C/c1ccco1 ... 83.4% (active)
C=CCN1C(=O)/C(=C\c2cccn2-c2ccc([N+](=O)[O-])cc2)C(=O)NC1=S ... 20.3% (inactive)
O=C1NC(=S)N(c2ccccc2F)C(=O)C1=Cc1ccco1 ... 96.8% (active)

// next entry
Prompt: Given the molecule CCOC(=O)N1CCN(C(C)C(=O)c2c[nH]c3ccccc23)CC1 (stereo not drawn) , what is its reported displacement?
Response: -0.3% (inactive)

----------
Listed below: displacement values for each entry.
molecular target: Heat shock 70 kDa protein 1A (Homo sapiens); experiment: Hsp70 inhibitors, probe displacement, primary screen, biochemical, fluorescence polarization (AID 583); conditions: mP, at 20 µM, active compounds read high;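 also: plate controls were vehicle for no effect and reference ligand for full effect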
Among all 140,000 compounds or so, about 80 (0.06%) were called active. The sample holds actives, similar compounds and a random draw of the others, so the mix is not that of the screen.
Field format: number, assumed %, no unit text.

CN1C(=O)C(=Cc2cccn2-c2cccc([N+](=O)[O-])c2)C(=O)N(C)C1=O ... -8.6

Prompt: Given the compound O=C1NC(=O)N(c2ccccc2)C(=O)/C1=C/c1ccoc1 , what is its reported displacement?
Response: -9.7

Prompt: Given the compound CCN1C(=O)/C(=C/c2cccn2C)C(=O)NC1=S , what is its reported displacement?
Response: 72.7

Prompt: Given the compound CCOc1ccc(N2C(=O)/C(=C/c3ccc(C)cc3)C(=O)NC2=S)cc1 , what is its reported displacement?
Response: -3.1
